Documented pKd across a set of binders
experimental_system: T1, human TSLP recombinant protein (human, UniProt Q969D9 29-159, biotinylated in the blocking and cell-binding assays (sites not given))
T1 construct: also called biotinylated human TSLP protein
protocol_details: SPR BIAcore T200, antibody captured on Protein A, human TSLP injected
Answer as the number alone; pKd is minus log10 of concentration in mol/L.

// solved cases for pKd follow
binder="39G5-H8 chimeric antibody (antibody, V domains shown) VH: QVQLLQSGPQLVRPGASVKISCKASGYSFISYWIHWVKQRPGQGLEWIGIIDPSDSDTSLNQKFKDKATLTVDKSSTTAYIQLSSPTSEDSAVYYCARSLDGYYDYWGQGTTLTVSS VL: DIQMTQSPASLSASVGETVTITCRASENIYSYLAWYQQKQGKSPQLLVYNARTLPEGVPSRFSGSGSGTQFSLKINSLQPEDFGIYYCQHHYTTPWTFGGGTKLEIK" measured_value=11.02
binder="76A8 chimeric antibody (antibody, V domains shown) VH: QVQLQQSGPQLVRPGASVKISCKASGYSFTSYWMHWVKQRPGQGLEWIGLIDPSDSETGLNQRFKDKATLTVDNPSSTAYMQLSSPTSEDSAVYYCARSLDGYYDYWGQGTTLTVSS VL: DIQMIQSPASLSASVGETVTITCRASGNIHNYLAWYQQKQGKSPQLLVYNAKTLADGVPSRFSGSGSGTQYSLKINSLQPEDFGSYYCQHFWSTPWTFGGGTRLEIK" measured_value=10.59
binder="71G4 chimeric antibody (antibody, V domains shown) VH: QVQLQQSGAELVMPGASVKMSCKASGYTFTDYWMHWVKQRPGQGLEWIGTIDNSDSDTTYNQKFKGKVTLTVDESSSTAYMQLSSLTSEDSAVYYCARSVDGYLDYWGQGTTLTVSS VL: EIQMTQSPASLSASVGETVTITCRTSENIYSYLAWYQQKQGKSPQLLVYFAKTLTDGVPSRLSGSGSGTQFSLKINSLQPEDFGSYYCQHHYGTPWTFGGGTKLEIK" measured_value=11.00
binder="79D6 chimeric antibody (antibody, V domains shown) VH: QVQLQQSGAELVMPGASVKMSCKASGYTFTGYWMHWVKQRPGQGLEWIGTIDNSDSDTTYNQKFKGKVTLTVDESSSTAYMQLSSLTSEDSAVYYCARSVDGYLDYWGQGTTLTVSS VL: DIQMIQSPASLSASVGETVTITCRASENIYSYLAWYQQIQGKSPQLLVYYAKTLPEGVPSRFSGSGSGTQFSLKINSLQPEDFGSYYCQHHYGTPWTFGGGTKLEIK" measured_value=10.69
binder="80D12 chimeric antibody (antibody, V domains shown) VH: QVQLKQSGPQLVRPGASVKISCKASGYSFTSYWMHWVKQRPGQGLEWIGMIDPSDSETTLNQKFKDKATLTVDKSSTTAYMQLSSPTSEDSAVYYCARSLDGYYDYWGQGTTLTVSS VL: DVQMIQSPASLSASVGETVTITCRTSENIYSYLAWYQQKQGKSPQLLVYFAKTLTDGVPSRFSGSGSGTQFSLKINSLQPEDFGSYYCQHHYGTPWTFGGGTKLEIK" measured_value=11.22

Problem: Recorded pKd of 80B12 chimeric antibody (antibody, V domains shown) VH: QVQLQQSGPQLVRPGASVKISCKASGYSFTTYWMHWVKQRPGQGLEWIGLIDPSDGEAGLNQNFKDKATLTVDISSRTAYMQISSPTSEDSAVYFCARSLDGYYDYWGQGTTLTVSS VL: DIQMTQSPASLSASVGETVTITCRASEDIYSYLAWYQQKQGKSPQLLVYNAKTLAEGVPSRFSGSGSGTQFSLKINSLQPEDFGSYYCQHFWSTPWTFGGGTKLELK , please.
Solution: 10.65

Problem: So what's the measured pKd for this one? 80E11 chimeric antibody (antibody, V domains shown) VH: QVQLQQSGPQLVRPGASVKISCKASGYSFTSYWMHWVKQRPGQGLEWIGVIDPSDSETILNQKFKDKATLTVDKSSSTAYMQFSSPTSEDSAVYYCARSLDGYYDYWGQGTTLTVSS VL: DIQMTQSPASLSASVGETVTITCRAGENIYSYLAWYQQKQGKSPQLLVYNAKTLAEGVPSRFSGSASGTQFSLKINSLQPEDFGSYYCQHFWGTPWAFGGGTRLEIK
Solution: 10.73
